These measurements were taken from patent EP0175304A2.

Assay: acute toxicity (LD50 and toxic symptomatology), intraperitoneal administration
Format: in vivo
Settings: in vivo; mouse, ip, 10 days observation, graphic interpolation
Rule: LD50 at 240 h below 300 mg/kg gives Y, anything at or above gives N.

// query Does the reported LD50 at 240 h of `COc1ccc(OC)c(C=NOCCC(=O)O)c1` stay below 300 mg/kg?
// result N

// query Subsequent entry: `O=C(O)CCON=C1c2ccccc2-c2ccccc21`
// result Y

// query Moving on to CCC(CO/N=C/c1ccccc1)C(=O)O (stereo not drawn)
// result N

// query Consider next the compound `O=C(O)CCON=C1CCCCC1` in the same way.
// result Y

// query Entry to check: `CC(=NOCCC(=O)O)c1ccc(Cl)cc1`
// result Y

---

Tested on: growing Swiss mouse
Experiment: acute toxicity (LD50 and toxic symptomatology), intraperitoneal administration
Format: in vivo
Conditions: ip
ASSAY READOUT: Symptomatology

Observe how each entry below is paired with its result.
CC(=NOCCC(=O)O)c1ccc(Cl)cc1 [compound 11] :: agitation
CC(C)=NOCCC(=O)O [compound 3] :: passivity
O=C(O)CCON=C1c2ccccc2-c2ccccc21 [compound 13] :: passivity
O=C(O)CCON=Cc1ccccc1Cl [compound 17] :: passivity
O=C(O)CCON=Cc1cccc(Cl)c1 [compound 18] :: passivity

// query Value lookup for Symptomatology; key = COc1ccc(OC)c(C=NOCCC(=O)O)c1 [compound 16]
// result passivity

// query Queued: O=C(O)CCON=C(c1ccccc1)c1ccccc1 [compound 7]
// result passivity

// query Let us now turn to O=C(O)CCON=C1CCCC1 [compound 1]
// result agitation

// query Repeat for the following compound: CC(=NOCCC(=O)O)c1ccccc1 [compound 6]
// result passivity

// query Ok, now O=C(O)CCO/N=C/c1ccc2c(c1)OCO2 [compound 21]
// result passivity

// query Same thing, different compound: O=C(O)CCO/N=C/c1cccs1 [compound 22]
// result passivity
